Entry source: patent US20120108501A1

# PROCEDURE DETAILS: Pharmacokinetics of released PEGylated protease inhibitor following P.O. administration of prodrugs in rats
# Assay type: in vivo, male Sprague-Dawley rats
# Design: concentration or dose not given beside the values
# RECORDED CONDITIONS: mPEG6-atazanavir in plasma after PO administration of mPEG6-ATV or of the listed prodrug, rats (n = 4-5)
If the reported AUCall Mean equals or exceeds 70 ng·h/mL, assign true (1). If not, assign false (0).

For orientation, consider the following solved cases.
{"COMPOUND": "COCCOCCOCCOCCOCCOCCOC(=O)N[C@H](C(=O)N[C@@H](Cc1ccccc1)[C@H](CN(Cc1ccc(-c2ccccn2)cc1)NC(=O)[C@@H](NC(=O)OC)C(C)(C)C)OC(=O)CNC(=O)[C@@H](N)CC(C)C)C(C)(C)C.Cl [Leu-Gly-mPEG6-ATV, Leu-Gly-mPEG6-Atazanavir Hydrochloride]", "GROUP": "true (1)"}
{"COMPOUND": "COCCOCCOCCOCCOCCOCCOC(=O)NC(C(=O)NC(Cc1ccccc1)C(CN(Cc1ccc(-c2ccccn2)cc1)NC(=O)C(NC(=O)OC)C(C)(C)C)OC(=O)C(CC(C)C)NC(=O)C(N)Cc1ccccc1)C(C)(C)C.Cl (stereo not drawn) [Phe-Leu-mPEG6-ATV, Phe-Leu-mPEG6-Atazanavir Hydrochloride]", "GROUP": "true (1)"}
{"COMPOUND": "CCCC(=O)OC(CN(Cc1ccc(-c2ccccn2)cc1)NC(=O)C(NC(=O)OC)C(C)(C)C)C(Cc1ccccc1)NC(=O)C(NC(=O)OCCOCCOCCOCCOCCOCCOC)C(C)(C)C (centres unmarked) [C3H7CO-mPEG6-ATV, mPEG6-Atazanavir Butyrate]", "GROUP": "false (0)"}
{"COMPOUND": "CCC(=O)O[C@@H](CN(Cc1ccc(-c2ccccn2)cc1)NC(=O)[C@@H](NC(=O)OC)C(C)(C)C)[C@H](Cc1ccccc1)NC(=O)[C@@H](NC(=O)OCCOCCOCCOCCOCCOCCOC)C(C)(C)C [C2H5CO-mPEG6-ATV, mPEG6-Atazanavir Propionate]", "GROUP": "false (0)"}

# input for lookup
// query Please check the record CCCCCCCC(=O)OC(CN(Cc1ccc(-c2ccccn2)cc1)NC(=O)C(NC(=O)OC)C(C)(C)C)C(Cc1ccccc1)NC(=O)C(NC(=O)OCCOCCOCCOCCOCCOCCOC)C(C)(C)C (centres unmarked) [C7H15CO-mPEG6-ATV, O-Octanoyl-mPEG6-Atazanavir] and state if its AUCall Mean is at or above 70 ng·h/mL.
// result false (0)

----------
# PROCEDURE DETAILS: Pharmacokinetics of released PEGylated protease inhibitor following P.O. administration of prodrugs in rats
# Assay type: in vivo, male Sprague-Dawley rats
# RECORDED CONDITIONS: mPEG3-atazanavir in plasma after PO administration of mPEG3-ATV or of the listed prodrug, rats (n = 4-5)
Entries and their MRT last Mean
Unit h implied. Number only.

{"MOLECULE": "CCOC(=O)OC(CN(Cc1ccc(-c2ccccn2)cc1)NC(=O)C(NC(=O)OC)C(C)(C)C)C(Cc1ccccc1)NC(=O)C(NC(=O)OCCOCCOCCOC)C(C)(C)C (centres unmarked) [mPEG3-atazanavir ethyl carbonate, mPEG3-Atazanavir Ethyl Carbonate]", "UNITS": "h", "MRT last Mean": 15.5}

// query Give reported MRT last Mean value for CCOC(C)OC(CN(Cc1ccc(-c2ccccn2)cc1)NC(=O)C(NC(=O)OC)C(C)(C)C)C(Cc1ccccc1)NC(=O)C(NC(=O)OCCOCCOCCOC)C(C)(C)C (mixture of isomers)
// result 2.35

----------
Entries and their MRT last Mean
# PROCEDURE DETAILS: Pharmacokinetics of released PEGylated protease inhibitor following P.O. administration of prodrugs in rats
# Assay type: in vivo, male Sprague-Dawley rats
# RECORDED CONDITIONS: mPEG6-atazanavir in plasma after PO administration of mPEG6-ATV or of the listed prodrug, rats (n = 4-5)
Unit h implied. Number only.

// below: answered compounds
{"COMPOUND": "CCCCCCCC(=O)OC(CN(Cc1ccc(-c2ccccn2)cc1)NC(=O)C(NC(=O)OC)C(C)(C)C)C(Cc1ccccc1)NC(=O)C(NC(=O)OCCOCCOCCOCCOCCOCCOC)C(C)(C)C (centres unmarked) [C7H15CO-mPEG6-ATV, O-Octanoyl-mPEG6-Atazanavir]", "OUTCOME MEASURE": "MRT last Mean", "RESULT NUMBER": 4.47}
{"COMPOUND": "COCCOCCOCCOCCOCCOCCOC(=O)NC(C(=O)NC(Cc1ccccc1)C(CN(Cc1ccc(-c2ccccn2)cc1)NC(=O)C(NC(=O)OC)C(C)(C)C)OC(=O)COCCOC(=O)C(N)CC(C)C)C(C)(C)C.Cl (centres unmarked) [mPEG6-Atazanavir-CME-Leucine HCl, mPEG6-Atazanavir-CME-Leucine]", "OUTCOME MEASURE": "MRT last Mean", "RESULT NUMBER": 21.8}
{"COMPOUND": "COCCOCCOCCOCCOCCOCCOC(=O)NC(C(=O)NC(Cc1ccccc1)C(CN(Cc1ccc(-c2ccccn2)cc1)NC(=O)C(NC(=O)OC)C(C)(C)C)OC(=O)C(CC(C)C)NC(=O)C(N)CC(C)C)C(C)(C)C.Cl (stereo not drawn) [Leu-Leu-mPEG6-ATV, Leu-Leu-mPEG6-Atazanavir Hydrochloride]", "OUTCOME MEASURE": "MRT last Mean", "RESULT NUMBER": 13.1}

// query Give reported MRT last Mean value for COCCOCCOCCOCCOCCOCCOC(=O)NC(C(=O)NC(Cc1ccccc1)C(CN(Cc1ccc(-c2ccccn2)cc1)NC(=O)C(NC(=O)OC)C(C)(C)C)OC(=O)COCCOC(=O)C(N)Cc1ccccc1)C(C)(C)C.Cl (centres unmarked) [mPEG6-Atazanavir-CME-phenylalanine HCl]
// result 22.1

// query Give reported MRT last Mean value for CCCCCC(=O)O[C@@H](CN(Cc1ccc(-c2ccccn2)cc1)NC(=O)[C@@H](NC(=O)OC)C(C)(C)C)[C@H](Cc1ccccc1)NC(=O)[C@@H](NC(=O)OCCOCCOCCOCCOCCOCCOC)C(C)(C)C [C5H11CO-mPEG6-ATV, C5H11CO-mPEG6-atazanavir]
// result 5.01

----------
# PROCEDURE DETAILS: Pharmacokinetics of released PEGylated protease inhibitor following P.O. administration of prodrugs in rats
# Format: in vivo, male Sprague-Dawley rats
# Design: concentration or dose not given beside the values
# RECORDED CONDITIONS: mPEG6-atazanavir in plasma after PO administration of mPEG6-ATV or of the listed prodrug, rats (n = 4-5)
If the reported AUCall Mean equals or exceeds 200 ng·h/mL, assign y. If not, assign n.

For orientation, consider the following solved cases.
{"COMPOUND": "COCCOCCOCCOCCOCCOCCOC(=O)N[C@H](C(=O)N[C@@H](Cc1ccccc1)[C@H](CN(Cc1ccc(-c2ccccn2)cc1)NC(=O)[C@@H](NC(=O)OC)C(C)(C)C)OC(=O)[C@H](Cc1ccccc1)NC(=O)[C@@H](N)CC(C)C)C(C)(C)C.Cl [Leu-Phe-mPEG6-ATV, Leu-Phe-mPEG6-Atazanavir Hydrochloride]", "GROUP": "y"}
{"COMPOUND": "CCOC(=O)OC(CN(Cc1ccc(-c2ccccn2)cc1)NC(=O)C(NC(=O)OC)C(C)(C)C)C(Cc1ccccc1)NC(=O)C(NC(=O)OCCOCCOCCOCCOCCOCCOC)C(C)(C)C (centres unmarked) [mPEG6-ATV-Ethyl Carbonate, mPEG6-Atazanavir Ethyl Carbonate]", "GROUP": "y"}
{"COMPOUND": "COCCOCCOCCOCCOCCOCCOC(=O)NC(C(=O)NC(Cc1ccccc1)C(CN(Cc1ccc(-c2ccccn2)cc1)NC(=O)C(NC(=O)OC)C(C)(C)C)OC(=O)COCCOC(=O)C(N)CC(C)C)C(C)(C)C.Cl (centres unmarked) [mPEG6-Atazanavir-CME-Leucine HCl, mPEG6-Atazanavir-CME-Leucine]", "GROUP": "y"}
{"COMPOUND": "CCOC(CC)OC(CN(Cc1ccc(-c2ccccn2)cc1)NC(=O)C(NC(=O)OC)C(C)(C)C)C(Cc1ccccc1)NC(=O)C(NC(=O)OCCOCCOCCOCCOCCOCCOC)C(C)(C)C (mixture of isomers) [ATV-1-Ethoxy propoxy-mPEG6, atazanavir-1-ethoxypropoxy-mPEG6]", "GROUP": "n"}
{"COMPOUND": "CCCCC(=O)OC(CN(Cc1ccc(-c2ccccn2)cc1)NC(=O)C(NC(=O)OC)C(C)(C)C)C(Cc1ccccc1)NC(=O)C(NC(=O)OCCOCCOCCOCCOCCOCCOC)C(C)(C)C (centres unmarked) [C4H9CO-mPEG6-ATV, C4H9CO-mPEG6-atazanavir]", "GROUP": "n"}
{"COMPOUND": "COCCOCCOCCOCCOCCOCCOC(=O)N[C@H](C(=O)N[C@@H](Cc1ccccc1)[C@H](CN(Cc1ccc(-c2ccccn2)cc1)NC(=O)[C@@H](NC(=O)OC)C(C)(C)C)OC(=O)CNC(=O)[C@@H](N)Cc1ccccc1)C(C)(C)C.Cl [Phe-Gly-mPEG6-ATV, Phe-Gly-mPEG6-Atazanavir Hydrochloride]", "GROUP": "y"}

// query Please check the record COCCOCCOCCOCCOCCOCCOC(=O)NC(C(=O)NC(Cc1ccccc1)C(CN(Cc1ccc(-c2ccccn2)cc1)NC(=O)C(NC(=O)OC)C(C)(C)C)OC(=O)C(N)CC(C)C)C(C)(C)C.Cl [mPEG6-Atazanavir-L-Leucine] and state if its AUCall Mean is at or above 200 ng·h/mL.
// result n

// query Please check the record COCCOCCOCCOCCOCCOCCOC(=O)NC(C(=O)NC(Cc1ccccc1)C(CN(Cc1ccc(-c2ccccn2)cc1)NC(=O)C(NC(=O)OC)C(C)(C)C)OC(=O)C(CC(C)C)NC(=O)C(N)CC(C)C)C(C)(C)C.Cl (stereo not drawn) [Leu-Leu-mPEG6-ATV, Leu-Leu-mPEG6-Atazanavir Hydrochloride] and state if its AUCall Mean is at or above 200 ng·h/mL.
// result n

// query Please check the record CCCCCCCCCCCCCCCCOCC(COP(=O)(O)OC(CN(Cc1ccc(-c2ccccn2)cc1)NC(=O)C(NC(=O)OC)C(C)(C)C)C(Cc1ccccc1)NC(=O)C(NC(=O)OCCOCCOCCOCCOCCOCCOC)C(C)(C)C)OC (centres unmarked) [mPEG6-Atazanavir-monophospholipid, mPEG6-atazanavir monophospholipid] and state if its AUCall Mean is at or above 200 ng·h/mL.
// result n

// query Please check the record CCNC(=O)OC(CN(Cc1ccc(-c2ccccn2)cc1)NC(=O)C(NC(=O)OC)C(C)(C)C)C(Cc1ccccc1)NC(=O)C(NC(=O)OCCOCCOCCOCCOCCOCCOC)C(C)(C)C (centres unmarked) [mPEG6-ATV-ethylcarbamate, mPEG6-Atazanavir-NH-ethyl carbamate] and state if its AUCall Mean is at or above 200 ng·h/mL.
// result n
